Measured values drawn from patent US11718610B2 for this set.

# Lookup of reported Tmax keyed by entry
Experiment: Pharmacokinetics of single intravenous and oral administration in mice
Format: in vivo
Details: mouse, plasma, single oral administration, 50 mg/kg/day, read-out: Peak time Tmax
reported-endpoint: Tmax (h)

{"molecule": "COc1cc(F)cc([C@@H](CO)NC(=O)[C@@H](C)N2Cc3ccc(-c4nc(N[C@H]5CCOC[C@H]5F)ncc4Cl)cc3S2(=O)=O)c1 [Compound 11]", "reported-endpoint": "Tmax", "observed": 0.75}
{"molecule": "[2H]C1([2H])CC(Nc2ncc(Cl)c(-c3ccc4c(c3)S(=O)(=O)N([C@H](C)C(=O)N[C@H](CO)c3cc(F)cc(OC)c3)C4)n2)CC([2H])([2H])O1 [Compound 9]", "reported-endpoint": "Tmax", "observed": 1.5}
{"molecule": "COc1cc(F)cc([C@@H](CO)NC(=O)[C@@H](C)N2Cc3ccc(-c4nc(NC5CCOCC5)ncc4Cl)cc3S2(=O)=O)c1 [Compound 1]", "reported-endpoint": "Tmax", "observed": 1}
{"molecule": "COc1cc(F)cc([C@@H](CO)NC(=O)[C@@H](C)N2Cc3ccc(-c4nc(NC5CCOCC5)ncc4Br)cc3S2(=O)=O)c1 [Compound 3]", "reported-endpoint": "Tmax", "observed": 1}
{"molecule": "C[C@H](C(=O)N[C@H](CO)c1cc(F)cc(Cl)c1)N1Cc2ccc(-c3nc(NC4CCOCC4)ncc3Cl)cc2S1(=O)=O [Compound 5]", "reported-endpoint": "Tmax", "observed": 0.75}
{"molecule": "COc1cc(F)cc([C@@H](CO)NC(=O)CN2Cc3ccc(-c4nc(NC5CCOCC5)ncc4Cl)cc3S2(=O)=O)c1 [Compound 10]", "reported-endpoint": "Tmax", "observed": 1}
